Target: memapsin 2 (Homo sapiens)
Construct: made in house; host or cells: E. coli
Test: Inhibition of memapsin 2 cleavage of fluorogenic substrate FS-2 (Ki, Ki apparent, Vi/Vo, % inhibition)
Format: biochemical
Conditions: Table 1; apparent Ki in presence of substrate FS-2; N.I. = no inhibition; read-out: Ki app

compound	Ki / µM
CSCC[C@H](NC(=O)[C@@H](NC(=O)OC(C)(C)C)C(C)C)C(=O)N[C@@H](CC(C)C)[C@@H](O)CN(C)C(=O)[C@H](NC(=O)OCc1ccccc1)C(C)C	15500
CSCC[C@H](NC(=O)[C@H](C)NC(=O)[C@H](C)C[C@H](O)[C@H](CC(C)C)NC(=O)OC(C)(C)C)C(=O)NCc1ccccc1	431
CC(C)C[C@H](NC(=O)[C@H](CCS(C)(=O)=O)NC(=O)[C@@H](NC(=O)OC(C)(C)C)C(C)C)[C@@H](O)C[C@@H](C)C(=O)N[C@@H]1CCCC[C@@H]1O [MMI-058]	408
CCC(C)[C@H](NC(=O)[C@H](C)C[C@H](O)[C@H](CC(C)C)NC(=O)[C@H](CCO)NC(=O)c1cnc2ccccc2c1)C(=O)N[C@H]1c2ccccc2C[C@H]1O (some centres unmarked)	146
CC(C)C[C@H](NC(=O)[C@H](CCO)NC(=O)c1cnc2ccccc2c1)[C@@H](O)C[C@@H](C)C(=O)N[C@H](C(=O)N[C@H]1c2ccccc2C[C@H]1O)C(C)C	198
CC(C)C[C@H](NC(=O)OC(C)(C)C)[C@@H](O)C[C@@H](C)C(=O)N[C@@H](C)C(=O)N[C@@H](CCS(C)(=O)=O)C(=O)NCc1ccccc1	2620
CSCC[C@H](NC(=O)[C@@H](NC(=O)OC(C)(C)C)C(C)C)C(=O)N[C@@H](CC(C)C)[C@@H](O)C[C@@H](C)C(=O)N[C@@H](C(C)C)C1CCCCO1 (some centres unmarked)	110
CC(C)C[C@H](NC(=O)[C@H](CCS(C)(=O)=O)NC(=O)[C@@H](NC(=O)OC(C)(C)C)C(C)C)[C@@H](O)C[C@@H](C)C(=O)N[C@@H]1CCCC[C@@H]1O [MMI-060]	101

* * *

Molecular target: memapsin 2 (Homo sapiens)
Construct: made in house; host or cells: E. coli
Assay: Inhibition of memapsin 2 cleavage of fluorogenic substrate FS-2 (Ki, Ki apparent, Vi/Vo, % inhibition)
Format: biochemical
Details: Table 1; apparent Ki in presence of substrate FS-2; N.I. = no inhibition; read-out: Ki app
pKi: −log10 of the molar value.
# pKi >= 3 gives criterion met, anything below gives criterion not met

structure	assigned category
CC(C)C[C@H](NC(=O)[C@H](CCS(C)(=O)=O)NC(=O)[C@@H](NC(=O)OC(C)(C)C)C(C)C)[C@@H](O)C[C@@H](C)C(=O)N[C@@H]1c2ccccc2C[C@@H]1O	criterion met
CSCC[C@H](NC(=O)[C@@H](NC(=O)OC(C)(C)C)C(C)C)C(=O)N[C@@H](CC(C)C)[C@@H](O)C[C@@H](C)C(=O)N[C@H]1c2ccccc2C[C@H]1O	criterion met
CC(C)C[C@H](NC(=O)[C@H](CCS(C)(=O)=O)NC(=O)[C@@H](NC(=O)OC(C)(C)C)C(C)C)[C@@H](O)C[C@@H](C)C(=O)N[C@H]1c2ccccc2C[C@H]1O	criterion met
CC(C)C[C@H](NC(=O)OC(C)(C)C)[C@@H](O)C[C@@H](C)C(=O)N[C@@H](C)C(=O)NCc1ccccc1	criterion not met
CSCC[C@H](NC(=O)[C@@H](NC(=O)OC(C)(C)C)C(C)C)C(=O)N[C@@H](CC(C)C)[C@@H](O)C[C@@H](C)C(=O)N[C@H]1CCCC[C@@H]1O	criterion met

* * *

Biological target: memapsin 2 (Homo sapiens, UniProt P56817)
Construct: made in house; host or cells: E. coli
Sequence (P56817 41-454): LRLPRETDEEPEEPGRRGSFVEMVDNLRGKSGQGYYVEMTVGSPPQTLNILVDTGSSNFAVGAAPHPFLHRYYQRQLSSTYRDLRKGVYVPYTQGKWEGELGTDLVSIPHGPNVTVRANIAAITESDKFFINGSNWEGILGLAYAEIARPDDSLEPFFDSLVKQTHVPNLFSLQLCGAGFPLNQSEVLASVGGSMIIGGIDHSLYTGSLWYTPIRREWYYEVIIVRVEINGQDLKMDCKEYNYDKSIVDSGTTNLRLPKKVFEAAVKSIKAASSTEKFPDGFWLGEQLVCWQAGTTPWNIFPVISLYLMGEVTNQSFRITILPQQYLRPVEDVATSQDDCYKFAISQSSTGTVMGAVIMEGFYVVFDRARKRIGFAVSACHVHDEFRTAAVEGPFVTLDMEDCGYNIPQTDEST
Assay: Inhibition of memapsin 2 cleavage of fluorogenic substrate FS-2 (Ki, Ki apparent, Vi/Vo, % inhibition)
Format: biochemical
Details: Table 9; ratio of % inhibition memapsin 1 / memapsin 2; 1 or less = greater inhibition of memapsin 2
Quick list: % Inh (M1/M2) per entry.

structure	% Inh (M1/M2)
CSCC[C@H](NC(=O)OCn1nc(C)cc1C)C(=O)N[C@@H](CC(C)C)[C@@H](O)C[C@@H](C)C(=O)N[C@@H](CC(C)C)C(=O)NC(CF)CF	0.18
Cc1cc(C)n(COC(=O)N[C@@H](CCS(C)(=O)=O)C(=O)N[C@@H](CC(C)C)[C@@H](O)C[C@@H](C)C(=O)N[C@H](C(=O)NCc2ccccc2)C(C)C)n1	0
CCCCNC(=O)[C@@H](NC(=O)[C@H](C)C[C@H](O)[C@H](CC(C)C)NC(=O)[C@H](CCSC)NC(=O)OCn1nc(C)cc1C)C(C)C	0.18
CC(C)C[C@H](NC(=O)[C@H](CCS(C)(=O)=O)NC(=O)[C@@H](NC(=O)OC(C)(C)C)C(C)C)[C@@H](O)C[C@@H](C)C(=O)N[C@@H](C(=O)NCc1ccccc1)[C@@H](C)O	0.73
CSCC[C@H](NC(=O)[C@@H](NC(=O)OC(C)(C)C)C(C)C)C(=O)N[C@@H](CC(C)C)[C@@H](O)C[C@@H](CO)C(=O)N[C@H](C(=O)NCc1ccccc1)C(C)C	1.30
CCCCNC(=O)[C@H](C(C)C)N1CC[C@@](C)(C[C@H](O)[C@H](CC(C)C)NC(=O)[C@H](CCSC)NC(=O)OCn2nc(C)cc2C)C1=O	0
CSCC[C@H](NC(=O)OCCn1nc(C)cc1C)C(=O)N[C@@H](CC(C)C)[C@@H](O)C[C@@H](C)C(=O)N[C@@H](CC(C)C)C(=O)NCC(C)C	0
CSCC[C@H](NC(=O)OCCn1nc(C(C)C)cc1C(C)C)C(=O)N[C@@H](CC(C)C)[C@@H](O)C[C@@H](C)C(=O)N[C@H](C(=O)NCC(C)C)C(C)C	0
CSCC[C@H](NC(=O)OCn1nc(C)cc1C)C(=O)N[C@@H](CC(C)C)[C@@H](O)C[C@@H](C)C(=O)N[C@H](C(=O)NCC(C)C)C(C)C	0.47

* * *

Catalogue of % Inh (M1/M2) readings, one per entry.
Target: memapsin 2 (Homo sapiens, UniProt P56817)
Construct: made in house; host or cells: E. coli
Test: Inhibition of memapsin 2 cleavage of fluorogenic substrate FS-2 (Ki, Ki apparent, Vi/Vo, % inhibition)
Type: biochemical
Settings: Table 9; ratio of % inhibition memapsin 1 / memapsin 2; 1 or less = greater inhibition of memapsin 2
Description: Ki is the inhibition equilibrium constant which indicates the ability of compounds to inhibit the β-secretase activity of memapsin 2 and memapsin 1. […] The K1 value is independent of the substrate, and converted from Ki apparent. The Vi/Vo values depicted in Table 1 were determined at conditions under which the enzyme and inhibitor concentrations were equal (e.g., about 80 nM, 100 nM). […]
reported endpoint: % Inh (M1/M2)

In [3]: df
Out[3]:
                                  structure  reported_endpoint  reading
0  CSCC[C@H](NC(=O)OCn1nc(C)cc1C)C(=O)N[C@@H](CC(C)C)[C@@H](O)C[C@@H](C)C(=O)N[C@H](C(=O)NCc1ccccc1)C(C)C      % Inh (M1/M2)     0.10
1  CSCC[C@H](NC(=O)OCn1nc(C)cc1C)C(=O)N[C@@H](CC(C)C)[C@@H](O)C[C@@H](C)C(=O)N[C@H](C(=O)NC(C)C)C(C)C      % Inh (M1/M2)     0.45
2  CSCC[C@H](NC(=O)OCn1nc(C)cc1C)C(=O)N[C@@H](CC(C)C)[C@@H](O)C[C@]1(C)CCN([C@@H](CC(C)C)C(=O)NCC(C)C)C1=O      % Inh (M1/M2)     0.19
